Assay: Toxicity liver stage against HepG2, at 10uM
Type: cell-based
Set-up: test concentration 10 uM, cell line HepG2-A16-CD81EGFP
Settings: human, HepG2-A16-CD81EGFP cells; read-out: INHIBITION
ATTRIBUTE MEASURED: cytotoxicity at 10 µM (%)
# unit: % | format: bare number

molecule=CC1(C)CNC(=O)CN(C(=O)Cc2ccccc2)C1 units_text=% endpoint_result=-6.92

// query Name the reported cytotoxicity at 10 µM value associated with the molecule CC1CN(C)c2ccccc2CN1C(=O)c1cnsn1 (configuration not stated)
// result 0.736

// query Name the reported cytotoxicity at 10 µM value associated with the molecule CN(C)C(=O)COCc1nn(C)c2c1CCN(Cc1ccco1)C2
// result -131

// query Name the reported cytotoxicity at 10 µM value associated with the molecule O=C(O)c1cc(NS(=O)(=O)c2ccc(Cl)s2)ccc1N1CCOCC1
// result -4.05

// query Name the reported cytotoxicity at 10 µM value associated with the molecule CS(=O)(=O)CCOCCNc1cncc(Br)c1
// result 1.83

* * *

Assay: Toxicity liver stage against HepG2, at 10uM
Assay type: cell-based
Parameters: test concentration 10 uM, cell line HepG2-A16-CD81EGFP
Details: human, HepG2-A16-CD81EGFP cells; read-out: INHIBITION
ATTRIBUTE MEASURED: cytotoxicity at 10 µM (%)
# unit: % | format: bare number

Look over these answered cases.
molecule="O=C(c1cc2c(s1)CCCC2)N1CCCC1Cn1cccn1 (stereo unspecified)" attribute_measured="cytotoxicity at 10 µM" endpoint_result=-11.9
molecule="CCCc1cc(NC2CCc3nc(C)nn3C2)n2ncnc2n1 (stereo unspecified)" attribute_measured="cytotoxicity at 10 µM" endpoint_result=-10.4
molecule=NC(=O)c1cnc(NC2CC2)nc1CCNC(=O)Cc1ccccc1 attribute_measured="cytotoxicity at 10 µM" endpoint_result=4.44
molecule=CCCNC(=O)c1[nH]nc(C2CC2)c1Br attribute_measured="cytotoxicity at 10 µM" endpoint_result=-0.587
molecule=Cc1nc(CN2CCC(CNC(=O)Nc3ccccn3)CC2)oc1C attribute_measured="cytotoxicity at 10 µM" endpoint_result=-3.5
molecule=CN(C)S(=O)(=O)NCc1nn(CCN2CCCC2)c(=O)c2ccccc12 attribute_measured="cytotoxicity at 10 µM" endpoint_result=-6.88

// query Name the reported cytotoxicity at 10 µM value associated with the molecule CC(=O)N(Cc1noc(C2CC2)n1)C1CCN(CC(=O)NC2CC2)C1 (stereo unspecified)
// result -3.67

// query Name the reported cytotoxicity at 10 µM value associated with the molecule CNC(=O)c1ccc(C2CCCN(C(=O)c3sc(C)nc3C)C2)nc1 (stereo unspecified)
// result -36.5

// query Name the reported cytotoxicity at 10 µM value associated with the molecule Cc1occc1C(=O)N1CCC2(CC1)CC(OCc1ccccn1)CO2 (stereo unspecified)
// result -71.7

// query Name the reported cytotoxicity at 10 µM value associated with the molecule CCN1CC(C(=O)NCCc2csc(-c3ccncc3)n2)CCC1=O (stereo unspecified)
// result -11.3

// query Name the reported cytotoxicity at 10 µM value associated with the molecule CN(Cc1ccon1)c1nc(-c2ccccn2)nc2c1CCNCC2
// result -2.45

* * *

Experiment: Toxicity liver stage against HepG2, at 10uM
Assay type: cell-based
Parameters: test concentration 10 uM, cell line HepG2-A16-CD81EGFP
Settings: human, HepG2-A16-CD81EGFP cells; read-out: INHIBITION
ATTRIBUTE MEASURED: cytotoxicity at 10 µM (%)
# unit: % | format: bare number

Look over these answered cases.
molecule=CCN(CC)Cc1cn2c(n1)CN(Cc1c(C)noc1C)CC2 units_text=% endpoint_result=-0.0472
molecule=CS(=O)(=O)CCCNC(=O)Nc1sc2ccccc2c1Cl units_text=% endpoint_result=6.54
molecule=COCC(=O)N1CCC2(CCc3ccc(F)cc32)CC1 units_text=% endpoint_result=-148
molecule="O=C1CC2(CCSC2)C(=O)N1CCCc1ccccc1 (configuration not stated)" units_text=% endpoint_result=6.43
molecule=CC(=O)N1CCO[C@@H]2CN(S(=O)(=O)C3CC3)CC[C@@H]2C1 units_text=% endpoint_result=-112
molecule=CCn1cc(CN2CCCN(C(=O)c3ccccc3C)CC2)cn1 units_text=% endpoint_result=-5.65
molecule=COc1cccc(N2CCN(C(=O)CN(C)c3cnccn3)CC2)c1 units_text=% endpoint_result=-15.2
molecule=Cc1noc(C)c1S(=O)(=O)N(CC(N)=O)CC(C)C units_text=% endpoint_result=-6.46
molecule=Cc1noc(C)c1CCC(=O)N1CCCN(C)CC1 units_text=% endpoint_result=-14.1
molecule="CC1CCCN(C(=O)CCNS(=O)(=O)c2cccnc2)C1 (configuration not stated)" units_text=% endpoint_result=-11

// query Name the reported cytotoxicity at 10 µM value associated with the molecule CC(NC(=O)NCCCN1CCCC1=O)c1nncn1C (configuration not stated)
// result -3.08

// query Name the reported cytotoxicity at 10 µM value associated with the molecule COC(C)c1cccc(NCc2cccc(O)c2)c1 (configuration not stated)
// result -0.334

* * *

Assay: Toxicity liver stage against HepG2, at 10uM
Assay type: cell-based
Set-up: test concentration 10 uM, cell line HepG2-A16-CD81EGFP
Conditions: human, HepG2-A16-CD81EGFP cells; read-out: INHIBITION
ATTRIBUTE MEASURED: cytotoxicity at 10 µM (%)
# unit: % | format: bare number

compound=CNC(=O)c1cnc(C=Cc2cc(OC)c(O)c(OC)c2)s1 endpoint_result=1.64

// query Name the reported cytotoxicity at 10 µM value associated with the compound NC(=O)c1c(NC(=O)C2CCCO2)sc2c1CCc1ccccc1-2 (stereo unspecified)
// result 0.794

// query Name the reported cytotoxicity at 10 µM value associated with the compound Cn1cc(CN2CC[C@H]3O[C@@H](C(=O)NC4CC4)CC[C@H]32)cn1
// result -1.55

// query Name the reported cytotoxicity at 10 µM value associated with the compound Cc1ccc(S(=O)(=O)n2ccn(C(=O)CC(C)C)c2=O)cc1
// result 11.2

// query Name the reported cytotoxicity at 10 µM value associated with the compound COc1cccc(CCC2CCCN(C(=O)c3ccc(=O)n(C)n3)C2)c1 (stereo unspecified)
// result 4.34

// query Name the reported cytotoxicity at 10 µM value associated with the compound Cn1cc(C(=O)NCc2cn3c(n2)CN(CC2CCOCC2)CC3)cn1
// result -12.9

* * *

Below is a list of entries, each paired with its recorded cytotoxicity at 10 µM value.
Assay: Toxicity liver stage against HepG2, at 10uM
Assay type: cell-based
Parameters: test concentration 10 uM, cell line HepG2-A16-CD81EGFP
Settings: human, HepG2-A16-CD81EGFP cells; read-out: INHIBITION
# unit: % | format: bare number

Look over these answered cases.
compound=O=c1c2cc3c(cc2nnn1Cc1ccccc1Cl)OCCO3 endpoint_result=9.32
compound="CCN(CC)S(=O)(=O)N1CCCC(c2nccn2Cc2ccncc2)C1 (centres undefined)" endpoint_result=9.2

// query Name the reported cytotoxicity at 10 µM value associated with the compound CC(C)(C)c1nc(CN2CCOC(Cn3cncn3)C2)cs1 (centres undefined)
// result -7.2

// query Name the reported cytotoxicity at 10 µM value associated with the compound CCS(=O)(=O)N1CCC(c2cc3n(n2)[C@@H](C(F)(F)F)C[C@@H](C)N3)CC1
// result 0.436

// query Name the reported cytotoxicity at 10 µM value associated with the compound OCCOCCN1CCCC1c1nc2cc(F)ccc2[nH]1 (centres undefined)
// result -17.5

// query Name the reported cytotoxicity at 10 µM value associated with the compound N#Cc1cccc(N2CCCC3(CN(C(=O)[C@H]4CCCO4)CCO3)C2)c1 (some centres undefined)
// result 3.53

// query Name the reported cytotoxicity at 10 µM value associated with the compound COc1cccc(Cn2c(C3CCNCC3)cc3cccnc32)c1
// result 0.115

// query Name the reported cytotoxicity at 10 µM value associated with the compound Cn1cc(C(O)CNC(=O)Nc2cc(F)ccc2-n2cccn2)cn1 (centres undefined)
// result 1.01

// query Name the reported cytotoxicity at 10 µM value associated with the compound O=C1OC2(CCN(C3CCCOC3)CC2)CN1CCc1ccccc1 (centres undefined)
// result -17.5

// query Name the reported cytotoxicity at 10 µM value associated with the compound Cc1cc(=O)n(CCNS(=O)(=O)c2ccccc2)cn1
// result 3.33

// query Name the reported cytotoxicity at 10 µM value associated with the compound CC(Cn1cccn1)NC(=O)N1CCCN(Cc2cccs2)CC1 (centres undefined)
// result -13.5

* * *

Test: Toxicity liver stage against HepG2, at 10uM
Format: cell-based
Set-up: test concentration 10 uM, cell line HepG2-A16-CD81EGFP
Settings: human, HepG2-A16-CD81EGFP cells; read-out: INHIBITION
Below is a list of entries, each paired with its recorded cytotoxicity at 10 µM value.
# unit: % | format: bare number

Look over these answered cases.
compound="Cc1c(Cl)c(C(F)(F)F)nn1C(C)C(=O)NN1CCN(C)CC1 (configuration not stated)" units_text=% endpoint_result=-7.85
compound="Cc1nc(NC(=O)NC2CC(=O)N(C(C)C)C2)nn1C(C)C (configuration not stated)" units_text=% endpoint_result=-1.55
compound=N#Cc1ccccc1OCCN1CCN(C(=O)C2CCCC2)CC1 units_text=% endpoint_result=-52.1
compound=COc1cccc(CN(C)S(=O)(=O)N2CCOCC2)c1 units_text=% endpoint_result=-8.62
compound=COc1ccc(Cl)cc1C(=O)N1C[C@H](C(C)C)[C@@H](N)C1 units_text=% endpoint_result=1.17

// query Name the reported cytotoxicity at 10 µM value associated with the compound O=C(Nc1cc(Cl)ccc1Cl)NC1CCN(C2CCOC2)CC1 (configuration not stated)
// result 6.8

// query Name the reported cytotoxicity at 10 µM value associated with the compound CC(C)c1nc(CCNC(=O)NCc2ccnc(N(C)C)c2)cs1
// result -4.69

// query Name the reported cytotoxicity at 10 µM value associated with the compound O=C(NC1CCN(c2cc(-n3ccnc3)ncn2)CC1)c1ccncc1
// result 5.94

// query Name the reported cytotoxicity at 10 µM value associated with the compound O=c1occ(CN2CCCCCC2)c(O)c1CN1CCOCC1
// result -8.2

// query Name the reported cytotoxicity at 10 µM value associated with the compound CC(C)CC(C)NCCCN1CCCN(C)CC1 (configuration not stated)
// result 24.7

// query Name the reported cytotoxicity at 10 µM value associated with the compound CC(=O)N1CCC(N[C@@H]2CC[C@@H]2NS(=O)(=O)c2cccnc2)CC1
// result 2.98

// query Name the reported cytotoxicity at 10 µM value associated with the compound Cc1ccc(CNCc2nnc3n2CC(C(F)(F)F)CC3)cc1 (configuration not stated)
// result 6.84
